We begin with a simple list: items and their reported IC50.
Target: UniProt:Q05397
Sequence (Q05397 whole entry): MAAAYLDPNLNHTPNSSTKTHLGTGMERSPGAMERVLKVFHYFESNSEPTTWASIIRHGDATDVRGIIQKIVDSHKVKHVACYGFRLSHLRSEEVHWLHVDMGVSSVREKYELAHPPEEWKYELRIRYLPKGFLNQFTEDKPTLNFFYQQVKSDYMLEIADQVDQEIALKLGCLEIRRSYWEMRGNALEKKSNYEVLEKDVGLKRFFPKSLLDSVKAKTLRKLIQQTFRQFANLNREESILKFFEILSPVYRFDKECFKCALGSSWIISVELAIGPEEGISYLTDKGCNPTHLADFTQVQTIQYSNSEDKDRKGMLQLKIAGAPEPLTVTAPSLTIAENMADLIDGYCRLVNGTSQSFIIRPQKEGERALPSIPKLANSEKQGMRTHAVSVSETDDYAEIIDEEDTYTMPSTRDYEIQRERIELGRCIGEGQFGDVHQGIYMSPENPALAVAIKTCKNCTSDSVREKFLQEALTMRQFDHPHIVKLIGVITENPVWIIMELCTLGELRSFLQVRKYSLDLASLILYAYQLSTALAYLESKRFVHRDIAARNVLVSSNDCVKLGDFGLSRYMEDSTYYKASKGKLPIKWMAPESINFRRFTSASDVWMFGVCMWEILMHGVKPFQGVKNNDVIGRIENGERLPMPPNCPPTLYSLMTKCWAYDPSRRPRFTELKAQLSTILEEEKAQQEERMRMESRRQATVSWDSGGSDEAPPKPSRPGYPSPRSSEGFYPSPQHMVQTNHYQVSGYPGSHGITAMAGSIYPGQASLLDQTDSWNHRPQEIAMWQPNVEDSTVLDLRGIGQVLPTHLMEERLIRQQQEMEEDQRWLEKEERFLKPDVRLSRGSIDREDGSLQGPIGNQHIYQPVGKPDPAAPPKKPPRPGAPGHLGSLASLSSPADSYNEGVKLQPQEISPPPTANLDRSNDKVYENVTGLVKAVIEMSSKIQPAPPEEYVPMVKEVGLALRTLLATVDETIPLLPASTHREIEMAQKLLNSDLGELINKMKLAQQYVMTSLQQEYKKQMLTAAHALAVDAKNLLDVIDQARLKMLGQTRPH
Numeric only. Scale: nM

| COMPOUND | IC50 / nM |
| --- | --- |
| C=CC(=O)Nc1cc(Nc2nccc(-c3c4n(c5ccccc35)CCCC4)n2)c(OC)cc1N(C)CCNC [Imp3] | 267 |

Next compound, IC50 to be filled in.
Returns the measured IC50 for the input compound. Input: C=CC(=O)Nc1cc(Nc2nccc(-c3c4n(c5ccccc35)CCCC4)n2)c(OC)cc1N(C)CCN(C)C [SH-1028]
235

###

Molecular target: EGFR^L858R (Homo sapiens, UniProt P00533, L858R)
Sequence (P00533 25-1210 L858R): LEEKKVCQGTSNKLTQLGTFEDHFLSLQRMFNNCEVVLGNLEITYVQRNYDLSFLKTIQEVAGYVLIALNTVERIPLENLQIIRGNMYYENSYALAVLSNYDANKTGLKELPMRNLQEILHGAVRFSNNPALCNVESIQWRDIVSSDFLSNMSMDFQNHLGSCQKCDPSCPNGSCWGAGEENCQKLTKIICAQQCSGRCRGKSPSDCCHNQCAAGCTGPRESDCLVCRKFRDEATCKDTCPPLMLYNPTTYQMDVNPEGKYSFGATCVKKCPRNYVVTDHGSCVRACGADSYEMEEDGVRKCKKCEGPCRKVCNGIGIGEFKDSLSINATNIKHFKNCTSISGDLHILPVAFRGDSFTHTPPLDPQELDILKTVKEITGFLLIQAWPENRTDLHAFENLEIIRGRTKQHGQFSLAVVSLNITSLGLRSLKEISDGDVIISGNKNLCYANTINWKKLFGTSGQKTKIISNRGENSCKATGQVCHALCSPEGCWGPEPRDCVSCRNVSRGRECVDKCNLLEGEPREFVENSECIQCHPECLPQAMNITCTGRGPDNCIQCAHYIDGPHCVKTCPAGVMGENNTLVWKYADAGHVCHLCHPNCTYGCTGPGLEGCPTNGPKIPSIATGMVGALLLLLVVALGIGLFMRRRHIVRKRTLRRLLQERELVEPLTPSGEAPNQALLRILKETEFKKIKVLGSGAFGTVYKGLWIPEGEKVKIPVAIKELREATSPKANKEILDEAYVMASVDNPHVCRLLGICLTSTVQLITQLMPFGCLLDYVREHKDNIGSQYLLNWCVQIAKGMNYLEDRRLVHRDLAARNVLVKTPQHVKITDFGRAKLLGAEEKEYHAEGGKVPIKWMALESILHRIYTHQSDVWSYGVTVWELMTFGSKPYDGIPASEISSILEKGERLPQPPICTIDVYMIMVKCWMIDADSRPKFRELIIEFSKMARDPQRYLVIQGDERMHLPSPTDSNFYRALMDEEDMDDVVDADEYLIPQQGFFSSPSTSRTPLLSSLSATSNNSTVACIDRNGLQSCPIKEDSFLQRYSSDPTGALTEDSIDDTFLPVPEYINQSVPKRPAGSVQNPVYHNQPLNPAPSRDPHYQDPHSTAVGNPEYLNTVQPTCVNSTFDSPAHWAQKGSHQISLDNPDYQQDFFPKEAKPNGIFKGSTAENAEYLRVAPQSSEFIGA
Assay: EGFR kinase inhibition assay (HTRF)
Details: 30 μmol/L ATP, no pre-incubation, n = 3
We begin with a simple list: items and their reported IC50.

| INPUT_SMILES | IC50 |
| --- | --- |
| C=CC(=O)Nc1cc(Nc2nccc(-c3c4n(c5ccccc35)CCCC4)n2)c(OC)cc1N(C)CCN(C)C | 0.7 nM |

Next molecule, IC50 to be filled in.
Lab note: need IC50 for C=CC(=O)Nc1cc(Nc2nccc(-c3c4n(c5ccccc35)CCCC4)n2)c(OC)cc1N(C)CCNC on EGFR^L858R (Homo sapiens, UniProt P00533, L858R), anyone have it?
6 nM
